Data provenance is paper PMC11249646.

Molecular target: CIB1 and αIIb interaction (CIB1-GST : F-αIIb peptide) (Homo sapiens, UniProt Q99828)
Construct: made in house; host or cells: BL-21 plus RIL cells (E. coli)
Sequence (Q99828 1-191): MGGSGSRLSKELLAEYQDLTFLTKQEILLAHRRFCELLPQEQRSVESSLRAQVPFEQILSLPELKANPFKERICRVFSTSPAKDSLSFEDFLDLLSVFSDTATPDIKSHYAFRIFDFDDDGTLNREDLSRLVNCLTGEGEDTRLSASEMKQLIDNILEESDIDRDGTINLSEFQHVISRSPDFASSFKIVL
Assay: FP assay, 1536-well qHTS format (primary and confirmatory screen)
Type: binding
Conditions: qHTS primary screen hits, Table S2; negative sign = inhibitory curve
property name: Curve Class
Kindly provide the number alone.

What value of measured Curve Class is listed for O=C(Nc1ccc(Oc2ccc(Cl)cc2)c(Cl)c1)c1cc(I)cc(I)c1O ? -2.4

====

target: CIB1 and αIIb interaction (CIB1-GST : F-αIIb peptide) (Homo sapiens, UniProt Q99828); construct: made in house; host or cells: BL-21 plus RIL cells (E. coli); experiment: FP assay, 1536-well qHTS format (primary and confirmatory screen); assay type: binding; details: qHTS primary screen hits, Table S2; read-out: IC50
property name: pIC50
Please express pIC50 as -log10 of the molar concentration.

Consider the following illustrative entries.
What value of measured pIC50 is listed for O=C1OC(c2ccc(O)c(S(=O)(=O)[O-])c2)(c2ccc(O)c(S(=O)(=O)[O-])c2)c2c(Br)c(Br)c(Br)c(Br)c21.[Na+].[Na+] ? 4.80

What value of measured pIC50 is listed for Cc1cc(C)nc(NC(=S)N2CCN(c3ccc4nsnc4c3)CC2)c1.O=C(O)C(F)(F)F ? 4.30

What value of measured pIC50 is listed for Cc1ccc(C)n1-c1cnccc1C(=O)O.O=C(O)C(F)(F)F ? 4.35

What value of measured pIC50 is listed for COc1ccc2c(=O)n3nc(Nc4cccc(N5CCN(C)CC5)c4)sc3nc2c1.Cl ? 4.75

What value of measured pIC50 is listed for CO/N=C(/C(=O)N[C@@H]1C(=O)N2C(C(=O)[O-])=C(C[n+]3ccn4ncccc43)CS[C@H]12)c1nsc(N)n1 ? 4.25

What value of measured pIC50 is listed for CCN(CC)C(=O)[C@@H]1C=C2c3cccc4[nH]cc(c34)C[C@H]2N(C)C1 ? 4.20

Others:
What value of measured pIC50 is listed for O=C(c1ccccc1)c1no[n+]([O-])c1C(=O)c1ccccc1 ? 4.60

What value of measured pIC50 is listed for Cc1cc(C)nc(NC(=S)N2CCN(c3cc4ccccc4cn3)CC2)c1.O=C(O)C(F)(F)F ? 4.10

What value of measured pIC50 is listed for CN(C)c1ccc(C(=C2C=CC(=[N+](C)C)C=C2)c2ccccc2)cc1.CN(C)c1ccc(C(=C2C=CC(=[N+](C)C)C=C2)c2ccccc2)cc1.O=C(O)C(=O)O.O=C([O-])C(=O)O.O=C([O-])C(=O)O ? 4.00

What value of measured pIC50 is listed for O=C(Cc1ccc(Cl)c(Cl)c1)Nc1ccc(S(=O)(=O)Nc2cccc(C(=O)O)c2)cc1.O=C(O)C(F)(F)F ? 4.90
